# Experimental Target: T1, SsTsr3 (Sulfolobus solfataricus, UniProt Q9UWV6 1-166)
# T1 sequence: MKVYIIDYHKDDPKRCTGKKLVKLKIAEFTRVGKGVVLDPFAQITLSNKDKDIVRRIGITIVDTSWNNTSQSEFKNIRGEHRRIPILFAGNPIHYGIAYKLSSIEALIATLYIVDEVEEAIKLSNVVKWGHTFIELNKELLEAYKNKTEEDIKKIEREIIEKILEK
# Experiment Notes: fluorescence anisotropy
Test Readout: pKd
Give bare numbers, as −log10 of the molar value.

Per the records, this binder ( UUUUUUUUU (ssRNA) [oligo-U9 RNA] ) has pKd equal to 5.22
